- assay.name: Stability of compound in pooled human plasma assessed as compound remaining at 5 uM measured for 120 to 240 mins by ECHO-MS analysis
- Type: ADME, cell-free
- protocol.conditions: time 120-240 min, read-out: Stability
Answer each item with its documented remaining at 5 µM.
Hi! Could you send only the number? It should be in %, unit omitted.

Task: Return reported remaining at 5 µM; argument: CC(C)OC(=O)[C@H](C)N[P@](=O)(CO[C@H](C)Cn1cnc2c(N)ncnc21)Oc1ccccc1.CC(C)OC(=O)[C@H](C)N[P@](=O)(CO[C@H](C)Cn1cnc2c(N)ncnc21)Oc1ccccc1.O=C(O)/C=C/C(=O)O [TENOFOVIR ALAFENAMIDE FUMARATE]
Output: 44

Task: Return reported remaining at 5 µM; argument: CC(C)OC(=O)[C@H](C)N[P@](=O)(CO[C@H](C)Cn1cnc2c(N)ncnc21)Oc1ccc(C[C@H](NC(=O)OCc2ccccc2)C(=O)OC2CCCC2)cc1
Output: 75

Task: Return reported remaining at 5 µM; argument: CC(C)OC(=O)[C@H](C)N[P@](=O)(CO[C@H](C)Cn1cnc2c(N)ncnc21)Oc1ccc(C[C@H](NC(=O)CCc2ccccc2)C(=O)OC2CCCC2)cc1
Output: 76

Task: Return reported remaining at 5 µM; argument: CC(C)OC(=O)[C@H](C)N[P@](=O)(CO[C@H](C)Cn1cnc2c(N)ncnc21)Oc1ccc(C[C@H](NCCCc2ccccc2)C(=O)CC2CCCC2)cc1
Output: 77

Task: Return reported remaining at 5 µM; argument: CC(C)OC(=O)[C@H](C)N[P@](=O)(CO[C@H](C)Cn1cnc2c(N)ncnc21)Oc1ccc(C[C@H](NC(=O)OCc2ccccc2)C(=O)CC2CCCC2)cc1
Output: 88

Task: Return reported remaining at 5 µM; argument: CC(C)OC(=O)[C@H](C)N[P@@](=O)(CO[C@H](C)Cn1cnc2c(N)ncnc21)Oc1ccc(C[C@H](NC(=O)OCc2ccccc2)C(=O)OC2CCCC2)cc1
Output: 56

* * *

- assay.name: Solubility of compound in water at 25 uM after 24 hrs by HPLC analysis
- Format: physicochemical
Answer each item with its documented solubility at 24 h, 25 µM.
Hi! Could you send only the number? It should be in µM, unit omitted.

Task: Return reported solubility at 24 h, 25 µM; argument: CC(C)OC(=O)[C@H](C)N[P@](=O)(CO[C@H](C)Cn1cnc2c(N)ncnc21)Oc1ccc(C[C@H](NC(=O)OCc2ccccc2)C(=O)OC2CCCC2)cc1
Output: 53.5

Task: Return reported solubility at 24 h, 25 µM; argument: CC(C)OC(=O)[C@H](C)N[P@](=O)(CO[C@H](C)Cn1cnc2c(N)ncnc21)Oc1ccc(C[C@H](NC(=O)OCc2ccccc2)C(=O)OC2CCCC2)cc1.O=C(O)/C=C/C(=O)O
Output: 104

Task: Return reported solubility at 24 h, 25 µM; argument: CC(C)OC(=O)[C@H](C)N[P@](=O)(CO[C@H](C)Cn1cnc2c(N)ncnc21)Oc1ccc(C[C@H](NC(=O)OCc2ccccc2)C(=O)OC2CCCC2)cc1.Cl
Output: 210

* * *

- assay.name: Cytotoxicity against in human MT4 cells after 5 days by XTT assay
- Assay type: cell-based
- protocol.conditions: time 5 day
outcome.measure: CC50 at 120 h (µM)
Hi! Could you send only the number? It should be in µM, unit omitted.

Task: Return reported CC50 at 120 h; argument: CCOC(=O)[C@H](Cc1ccc(O[P@@](=O)(CO[C@H](C)Cn2cnc3c(N)ncnc32)N[C@@H](C)C(=O)OC(C)C)cc1)NC(=O)OCc1ccccc1
Output: 11

Task: Return reported CC50 at 120 h; argument: CC(C)OC(=O)[C@H](C)N[P@@](=O)(CO[C@H](C)Cn1cnc2c(N)ncnc21)Oc1ccc(C[C@@H](NC(=O)OCc2ccccc2)C(=O)OC2CCCC2)cc1
Output: 15

Task: Return reported CC50 at 120 h; argument: CC(C)OC(=O)[C@H](C)N[P@](=O)(CO[C@H](C)Cn1cnc2c(N)ncnc21)Oc1ccc(C[C@H](NC(=O)CCc2ccccc2)C(=O)OC2CCCC2)cc1
Output: 8.8
